Value source: PubChem BioAssay

Catalogue of inhibition values
- Tested on: transactivating tegument protein VP16 (Human herpesvirus 1)
- procedure details: VP16 transactivation reporter inhibitors, counter-screen for SRC2 inhibitor project, cell-based, luminescence, single concentration (AID 652007)
- measurement context: cell-based VP16 transactivation luciferase reporter, at 8.9 µM, stronger effect = higher value
The reply should be a number in %, with the unit left off.

Please review the following examples before continuing.
CC(C)c1ccccc1NC(=O)COC(=O)CCN1C(=O)/C(=C\C=C\c2ccccc2)SC1=S
45.2
Cc1ccc(OCC(=O)c2cc(C)n(Cc3ccco3)c2C)c([N+](=O)[O-])n1
23.6
Cc1nnsc1C(=O)NC1CCCc2c1cnn2-c1ccc(C(C)(C)C)cc1 (stereo not given)
13.8
O=[N+]([O-])c1cccc(NC(=S)Nc2nc(-c3ccc(Cl)cc3Cl)cs2)c1
-15.8
CC(/C=C1\SC(=O)N(CCCC(=O)O)C1=O)=C\c1ccccc1
90.3

Exercise: # get_value(readout='inhibition', item= `CC(C)(C)c1nn(-c2ccccc2)c2[nH]c(=O)c(CNc3ccc4c(c3)OCCO4)cc12` )
Key: -7.89

Exercise: Entry to check: `O=C(c1ccccc1F)N1CCN(S(=O)(=O)c2ccc3c(c2)OCCO3)CC1`
Key: 3.25

Exercise: Entry to check: `Cc1ccc(-c2noc(CCCC(=O)NC3CCCC3)n2)cc1`
Key: 20.1

Exercise: Entry to check: `Cc1nc(=O)c(-c2ccccc2)c(C)n1-c1ccccc1Cl`
Key: -4.06

Exercise: Entry to check: `CCOc1ccc(/C=C2\SC(=S)N(CCC(=O)O)C2=O)cc1`
Key: -7.9

---

- target entity: Protein phosphatase methylesterase 1 (Homo sapiens)
- procedure details: PME-1 inhibitor activity retest, confirmation, biochemical, fluorescence polarization, FP-Rh probe, triplicate (AID 2171);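 further: 0% = enzyme with DMSO and 100% = wells lacking PME-1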
- measurement context: recombinant PME-1, FP-Rh probe fluorescence polarization; at 5.9 µM
Calls of active or inactive are those of the source.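 The calls were made as follows: active = inhibition above the hit cutoff set in the earlier primary screen (cut at about 27% in these data); inactive = the rest.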
Respond with a class label; see 1.0 = active, 0.0 = inactive

Cc1ccc(NS(=O)(=O)c2cccc(C(=O)N3CCN(c4ncccn4)CC3)c2)cc1
0.0
Cc1ccc(NCC(O)C(O)C(O)CO)c(N=Nc2ccccc2)c1C (stereo unspecified)
1.0
O=C1c2c(O)cccc2Cc2cccc(O)c21
0.0
Cc1ccc(C(C)C)c(OCc2ccc(C(=O)N/N=C/c3cccc(O)c3O)cc2)c1
0.0
Cc1ccc(S(=O)(=O)c2nnn3c2nc(N2CCOCC2)c2ccccc23)c(C)c1
0.0
Cn1c(=O)c(Nc2ccc(Cl)cc2)c2c3c(cccc31)C(=O)c1ccccc1-2
1.0
O=C(N/N=C/c1sc(N2CCOCC2)nc1-c1ccccc1)c1ccccc1O
1.0
Cc1cc(N)ccc1N1CCCC1
0.0
CCOC(=O)N1CC=C2C(C#N)=C(N)C(C#N)(C#N)[C@H](c3ccccc3OCC)[C@H]2C1
1.0
CS(=O)(=O)N1N=C(c2ccccc2)CC1c1ccc2c(c1)OCO2 (stereo unspecified)
0.0

Exercise: Tell me the assay call for `CCOc1cccc(/C=C/c2ccc3cccc(O)c3n2)c1O` please.
Key: 1.0

Exercise: Entry to check: `Cc1ccsc1C=Nc1ccc(O)cc1`
Key: 0.0

Exercise: Entry to check: `c1ccc2sc(Nc3nc4cc5c(cc4s3)OCO5)nc2c1`
Key: 1.0

Exercise: Entry to check: `COc1ccc(-c2nc(NC(=O)c3[nH]c(C)c(C(C)=O)c3C)sc2C)cc1`
Key: 1.0

---

- procedure details: VP16 transactivation reporter inhibitors, counter-screen for LRH-1 inverse agonist project, cell-based, luminescence, high throughput (AID 651615)
- measurement context: Gal4-VP16 luciferase reporter cells, at 3.6 µM, stronger effect = higher value
recorded endpoint: inhibition (%)
The reply should be a number in %, with the unit left off.

Please review the following examples before continuing.
O=C(c1ccc(=O)n(Cc2ccccc2)n1)N1CCN(C/C=C/c2ccccc2)CC1
5.07
CC(=O)Nc1ccc(NC(=O)CSc2nnc(COc3ccccc3C)n2CC2CCCO2)cc1 (configuration not stated)
-5.23
O=C(CSc1n[nH]c(-c2ccccc2)n1)Nc1ccc(F)cc1F
3.19
CC(=O)N1c2ccc(S(=O)(=O)N3CCC(C(=O)Nc4cccc(C)n4)CC3)cc2CC1C (configuration not stated)
51.9

Exercise: # get_value(readout='inhibition', item= CN(C)c1ccc(CN(C(=O)C2COc3ccccc3O2)C2CCS(=O)(=O)C2)cc1 (configuration not stated) )
Key: 1.92

---

- target entity: Induced myeloid leukemia cell differentiation protein Mcl-1 (Homo sapiens)
- procedure details: inhibitors of MCL1 binding to BIM-BH3, confirmation, biochemical, fluorescence polarization, triplicate (AID 2168);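 further: 0% = DMSO wells and 100% = unlabeled Bim-BH3 control peptide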
- measurement context: GST-MCL1 / FITC-Bim-BH3 fluorescence polarization; at 10.9 µM; stronger effect = higher value
This is one part of the list.
Entry flag: true if inhibition reaches 40%; false if it does not.

# count of solved cases: 5
C=C1c2c(Cl)ccc(O)c2C(O)=C2C(=O)[C@]3(O)C(O)=C(C(N)=O)C(=O)[C@@H](N(C)C)[C@@H]3[C@@H](O)C12 (some centres undefined)
true
O=c1[nH]c2ccccc2n2c(-c3ccccc3)nnc12
false
COc1ccc(N2CC(C(=O)NCCN3C(=O)S/C(=C\c4cccnc4)C3=O)CC2=O)c(OC)c1 (centres undefined)
false
CC(C)(C)OC(=O)NCCCC1=CC2=CC(=O)C(C)(OC(=O)c3ccco3)C(=O)C2=CO1 (centres undefined)
false
O=C1c2ccccc2C(=O)c2c1cccc2N1CCN(CCO)CC1
true

Turning to the following compound.
Exercise: Please check the record `O=C(C[n+]1cc(Br)cc2ccccc21)c1ccc(F)cc1` and state if its inhibition is at or above 40%.
Key: false

---

- target entity: Nuclear receptor subfamily 5 group A member 2 (Homo sapiens)
- procedure details: LRH-1 (NR5A2) inverse agonists, retest, confirmation, cell-based, luminescence (AID 651613);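 further: HEK293T cells co-transfected with LRH-1 and StAR promoter luciferase reporter; 0% = vehicle wells and 100% = parental cells lacking receptor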
- measurement context: cell-based LRH-1 luciferase reporter, inverse agonism; at 3.6 µM
Active and inactive are the calls of the source. Cut-off read from the data, not from the text of the source: active = inhibition above about 42%; inactive = the rest.
Respond with a class label; see Yes (active), No (inactive)

# count of solved cases: 6
CO/N=C\C(=N\Nc1ccc(OC)cc1)C(=O)c1ccccc1
Yes
COc1ccc(C(=O)NCCN(C)C)c2nc3ccccc3cc12
Yes
O=C(COC(=O)CCN1C(=O)C2CC=CCC2C1=O)NCCc1ccccc1 (configuration not stated)
No
Cc1ccc(/C=C2\SC(=S)N(c3c(C)n(C)n(-c4ccccc4)c3=O)C2=O)cc1
Yes
CCOc1ccc(CCNC(=O)COC(=O)c2cc(S(=O)(=O)N3CCOCC3)ccc2F)cc1OCC
Yes
CC(=O)N1CCN(c2ccc(Oc3ccc([N+](=O)[O-])c(C(F)(F)F)c3)cc2)CC1
Yes

Exercise: Tell me the assay call for `Cn1c(CN2CCN(c3cccc(Cl)c3)CC2)nc2ccccc21` please.
Key: No

Exercise: Entry to check: `Cc1cc([N+](=O)[O-])ccc1NC(=O)CSc1nnc(C)n1C`
Key: Yes

Exercise: Entry to check: `c1ccc2cc3c(NCCN4CCOCC4)ccnc3cc2c1`
Key: Yes

Exercise: Entry to check: `CC(C)[C@H](NC(=O)OCc1ccccc1)C(=O)OCC(=O)Nc1ccc(N2CCOCC2)cc1`
Key: Yes

Exercise: Entry to check: `Nc1ccc(Oc2ccc(Cl)cc2)cc1`
Key: No

Exercise: Entry to check: `Cc1cccc(NC(=O)CSc2nc3[nH]ncc3c(=O)[nH]2)c1C`
Key: Yes

Exercise: Entry to check: `Cn1ncc(Cl)c1C(=O)NCc1ccc2c(c1)OCO2`
Key: Yes

Exercise: Entry to check: `Cc1nn(CC(=O)Nc2ccc(N3CCOCC3)cc2)c(C)c1Cl`
Key: Yes

---

- procedure details: Gal4-VP16 luciferase reporter inhibitors, counter-screen for COUP-TFII antagonist project, cell-based, luminescence, HEK293 (AID 687007)
- measurement context: at 8.5 µM, stronger effect = higher value
This is one part of the list.
recorded endpoint: inhibition (%)
The reply should be a number in %, with the unit left off.

Please review the following examples before continuing.
Cc1ccc(NC(=O)CN(C)CC(=O)Nc2cccc(F)c2)cc1[N+](=O)[O-]
1.63
C=CCSc1nsc(NC(=O)Nc2cccc(C(C)=O)c2)n1
-25.6
COc1ccc(NC(=O)C2Cc3c(-c4cccc(NC(C)=O)c4)ccnc3O2)cc1OC (stereo unspecified)
-1.35
CC[n+]1cc(C)ccc1/C=C/c1ccc(N(C)C)cc1
-0.96

Exercise: # get_value(readout='inhibition', item= `CN(c1cccc(NC(=O)c2ccc(CN3CCc4ccccc4C3)cc2)c1)S(C)(=O)=O` )
Key: 4.04

Exercise: Entry to check: `O=C1NC[C@@H](Cc2ccc(O)cc2)N(CCc2cccc(F)c2)C1=O`
Key: 4.3

---

Catalogue of inhibition values
- target entity: Nuclear receptor coactivator 1 (Homo sapiens)
- procedure details: SRC1 coactivator transcriptional activity inhibitors, confirmation, cell-based, luminescence, quadruplicate (AID 588820);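 further: 0% = DMSO wells and 100% = gossypol 36 µM treated wells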
- measurement context: HEK293 GAL4-SRC1 luciferase reporter, at 3.6 µM, stronger effect = higher value
The reply should be a number in %, with the unit left off.

Please review the following examples before continuing.
COc1ccc(NC(=O)c2cc(-c3cc(C)cc(F)c3)n[nH]2)cc1OC
15.5
Cc1cc(/C=N/n2cnnc2)c(C)n1-c1ccc(OCc2ccc(Cl)cc2Cl)cc1
8.2
COc1ccc([C@H]2CC(=O)C=C(c3ccnc4ccc(Cl)cc34)C2)cc1
2.04
COc1ccc(-c2noc(CCCC(=O)O)n2)cc1
30.7

Exercise: # get_value(readout='inhibition', item= `CCn1c(C)cc(C(=O)CN2C(=O)c3ccccc3S2(=O)=O)c1C` )
Key: -18.2
